system name: IgE-Tb binding to soluble IgE receptor FcεR1α (Y131A mutation) (Homo sapiens, UniProt P01854, N146Q/N252Q)
Sequence (P01854 whole entry N146Q/N252Q, looked up): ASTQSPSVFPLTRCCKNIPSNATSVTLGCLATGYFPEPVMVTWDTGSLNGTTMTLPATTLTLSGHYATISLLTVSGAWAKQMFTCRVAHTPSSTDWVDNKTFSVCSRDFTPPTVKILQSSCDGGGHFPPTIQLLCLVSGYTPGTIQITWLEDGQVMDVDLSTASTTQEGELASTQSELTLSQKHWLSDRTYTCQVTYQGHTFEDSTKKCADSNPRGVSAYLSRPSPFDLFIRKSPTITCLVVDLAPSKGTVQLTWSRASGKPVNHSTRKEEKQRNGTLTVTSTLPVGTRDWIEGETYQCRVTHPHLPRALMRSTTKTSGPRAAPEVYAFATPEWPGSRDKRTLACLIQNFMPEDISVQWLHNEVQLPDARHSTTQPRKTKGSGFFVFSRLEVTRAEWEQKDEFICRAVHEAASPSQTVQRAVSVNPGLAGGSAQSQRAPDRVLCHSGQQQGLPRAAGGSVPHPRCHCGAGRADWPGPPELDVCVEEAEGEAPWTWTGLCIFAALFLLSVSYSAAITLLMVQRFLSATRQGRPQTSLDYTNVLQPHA
procedure summary: In vitro FRET assay: inhibition of binding of IgE-Tb to receptor FcεR1α-Y131A-AF488
conditions used: read-out: FRET IC50 range
pIC50: −log10 of the molar value.

compound | pIC50
Cc1cc(C(=O)N[C@@H]2CCc3cc(S(=O)(=O)NCC(C)C)c4cc(C5CC5)ncc4c32)n[nH]1 (single isomer, unassigned) | 5.70 to 7.00
CC(C)(F)CNS(=O)(=O)c1cc2c(c3cnc(C4CC4)cc13)CC[C@@H]2NC(=O)C1CN(C(=O)OC(C)(C)C)C1 (single isomer, unassigned) | 5.70 to 7.00
CC(C)CNS(=O)(=O)c1cc2c(c3cnc(C4CC4)cc13)CCC2Nc1nncn1-c1cccnc1 (stereo not shown) | 5.70 to 7.00
CC(C)(F)CNS(=O)(=O)c1cc2c(c3cnc(C4CC4)cc13)CC[C@H]2Nc1nccn1CC1CC1 (single isomer, unassigned) | 5.70 to 7.00
Cc1cc(Nc2nncn2[C@@H]2CCc3c2cc(S(=O)(=O)NCC(C)C)c2cc(C4CC4)ncc32)n(C)n1 (single isomer, unassigned) | 7.30 to 8.00
Cc1cncc(Nc2nncn2[C@@H]2CCc3c2cc(S(=O)(=O)NCC(C)C)c2cc(C4CC4)ncc32)c1 (single isomer, unassigned) | 8.00 to 9.00
Cn1c(NC2CCc3cc(S(=O)(=O)NCC(C)(C)F)c4cc(C5CC5)ncc4c32)nc2ccccc21 (stereo not shown) | 5.70 to 7.00
CC(C)CNS(=O)(=O)c1cc2c(c3cnc(C4CC4)cc13)C(=O)CC2 | 5.70 to 7.00
Cn1cc(C#N)c(NC2CCc3cc(S(=O)(=O)NCC(C)(C)F)c4cc(C5CC5)ncc4c32)n1 (stereo not shown) | 5.70 to 7.00
CC(C)CNS(=O)(=O)c1cc2c(c3cnc(C4CC4)cc13)C(NS(C)(=O)=O)CC2 (stereo not shown) | 5.70 to 7.00
CC(C)(F)CNS(=O)(=O)c1cc2c(c3cnc(C4CC4)cc13)CCC2Oc1cccnc1 (stereo not shown) | 5.70 to 7.00
CC(C)CNS(=O)(=O)c1cc2c(c3cnc(C4CC4)cc13)C(n1cnnc1Nc1ccnn1C)CC2 (stereo not shown) | 5.70 to 7.00
Cc1ccc(N/C(=N\C#N)NC2CCc3cc(S(=O)(=O)NCC(C)C)c4cc(C5CC5)ncc4c32)cc1 (stereo not shown) | 5.70 to 7.00
[2H]C([2H])(NS(=O)(=O)c1cc2c(c3cnc(C4CC4)cc13)CCC2NC(=O)OC(C)(C)C)C(C)C (stereo not shown) | 5.70 to 7.00
CCNc1nncn1C1CCc2cc(S(=O)(=O)NCC(C)C)c3cc(C4CC4)ncc3c21 (stereo not shown) | 5.70 to 7.00
CCNc1nncn1C1CCc2c1cc(S(=O)(=O)NCC(C)C)c1cc(C3CC3)ncc21 (single isomer, unassigned) | 7.30 to 8.00
